# Test system: C6 rat glioma cell line
# assay_protocol: MTT assay, inhibition of C6 tumor cell proliferation
# Assay type: cell-based
# condition_summary: free glycoside derivative, 48 h treatment, MTT; read-out: ID50 (µM) C6
value_kind: IC50

Report IC50 for CCCCCCCC/C=C\CCCCCCCCO[C@H]1O[C@H](COS(=O)(=O)[O-])[C@@H](O)[C@H](O)[C@H]1NC(C)=O.[K+] [IG20, potassium salt] please.
> 100 µM
